The origin of these recorded values is patent US20250333424A1.

# System: monocytic THP1 cells infected with HIV VSV-G pseudotyped GFP-NEF reporter virus
# Assay explanation: cells
# Assay type: cell-based
# Applied conditions: Human immunodeficiency virus 1, THP-1, 24 h
Kindly supply the reported log10 of EC50 values for the records listed here.
// do not treat as linear: log10 of EC50, unit nM

Q: Would you please give the reported log10 of EC50 of `Cc1cc(/C=C/C#N)cc(C)c1Oc1nc(NC23CC(C#N)(C2)C3)nc2nc(C(F)F)n(C(F)F)c12` with monocytic THP1 cells infected with HIV VSV-G pseudotyped GFP-NEF reporter virus?
A: 1.41

Q: Please tell me the measured log10 of EC50 for `Cc1cc(/C=C/C#N)cc(C)c1Oc1nc(NC23CC(C#N)(C2)C3)nc2cc[nH]c12` ; system: monocytic THP1 cells infected with HIV VSV-G pseudotyped GFP-NEF reporter virus.
A: 2.00

Q: Lab note: record log10 of EC50 of Cc1cc(/C=C/C#N)cc(C)c1Oc1nc(NC23CC(C#N)(C2)C3)nc2c1C1(C)OC[C@H](F)CN1C2=O (some centres unmarked) tested on monocytic THP1 cells infected with HIV VSV-G pseudotyped GFP-NEF reporter virus.
A: 1.28

Q: # assay system monocytic THP1 cells infected with HIV VSV-G pseudotyped GFP-NEF reporter virus: give log10 of EC50 of `Cc1cc(/C=C/C#N)cc(C)c1Oc1nc(NC23CC(C#N)(C2)C3)nc2c1c(C)nn2CC#N`
A: 1.56

Q: # return log10 of EC50 of `Cc1cc(/C=C/C#N)cc(C)c1Oc1nc(NC23CC(C#N)(C2)C3)nc2nc3n(c12)CCOC3` (system: monocytic THP1 cells infected with HIV VSV-G pseudotyped GFP-NEF reporter virus)
A: 1.57

Q: Give the observed log10 of EC50 of `Cc1cc(/C=C/C#N)cc(C)c1Oc1nc(NC23CC(C#N)(C2)C3)nc2c1[C@@H]1OCCCN1C2=O` for monocytic THP1 cells infected with HIV VSV-G pseudotyped GFP-NEF reporter virus.
A: 1.76

Q: Please report the measured log10 of EC50 for `Cc1cc(/C=C/C#N)cc(C)c1Oc1nc(NC23CC(C#N)(C2)C3)nc2c1CNC2=O` tested on monocytic THP1 cells infected with HIV VSV-G pseudotyped GFP-NEF reporter virus.
A: 1.44

Q: Fill in: log10 of EC50 on monocytic THP1 cells infected with HIV VSV-G pseudotyped GFP-NEF reporter virus, entry `Cc1cc(/C=C/C#N)cc(C)c1Oc1nc(NC23CC(C#N)(C2)C3)nc2nc3n(c12)C[C@H](C)CO3`
A: 1.35

Q: Specify the recorded log10 of EC50 for `Cc1cc(/C=C/C#N)cc(C)c1Oc1nc(NC23CC(C#N)(C2)C3)nc2[nH]ncc12` , system: monocytic THP1 cells infected with HIV VSV-G pseudotyped GFP-NEF reporter virus.
A: 1.82

Q: Name the recorded log10 of EC50 of `Cc1cc(/C=C/C#N)cc(C)c1Oc1nc(NC23CC(C#N)(C2)C3)nc2snc(C)c12` , assay system monocytic THP1 cells infected with HIV VSV-G pseudotyped GFP-NEF reporter virus.
A: 1.77

Q: # assay system monocytic THP1 cells infected with HIV VSV-G pseudotyped GFP-NEF reporter virus: give log10 of EC50 of `Cc1cc(/C=C/C#N)cc(C)c1Cc1nc(NC23CC(C#N)(C2)C3)nc2nn(C)cc12`
A: 1.70

Q: Please report the measured log10 of EC50 for `Cc1cc(/C=C/C#N)cc(C)c1Oc1nc(NC23CC(C#N)(C2)C3)nc2nn(CC(F)F)cc12` tested on monocytic THP1 cells infected with HIV VSV-G pseudotyped GFP-NEF reporter virus.
A: 2.52

Q: Look up and report log10 of EC50, with monocytic THP1 cells infected with HIV VSV-G pseudotyped GFP-NEF reporter virus as system, for `CCc1nc2nc(NC34CC(C#N)(C3)C4)nc(Oc3c(C)cc(/C=C/C#N)cc3C)c2n1C(F)F`
A: 1.33

Q: Quote log10 of EC50 with test system monocytic THP1 cells infected with HIV VSV-G pseudotyped GFP-NEF reporter virus for `Cc1cc(/C=C/C#N)cc(C)c1Oc1nc(NC23CC(C#N)(C2)C3)nc2c1C(C)(C)N(c1cnn(C)c1)C2=O`
A: 2.06

Q: Name the recorded log10 of EC50 of `Cc1cc(/C=C/C#N)cc(C)c1Oc1nc(NC23CC(C#N)(C2)C3)nc2[nH]nc(C(F)F)c12` , assay system monocytic THP1 cells infected with HIV VSV-G pseudotyped GFP-NEF reporter virus.
A: 1.63

Q: Fill in log10 of EC50 for Cc1cc(/C=C/C#N)cc(C)c1OC1=NC(NC23CC(C#N)(C2)C3)=NC2N=CN(C)C12 (centres unmarked) tested with monocytic THP1 cells infected with HIV VSV-G pseudotyped GFP-NEF reporter virus.
A: 1.39

Q: Provide log10 of EC50, tested on monocytic THP1 cells infected with HIV VSV-G pseudotyped GFP-NEF reporter virus, for `Cc1cc(/C=C/C#N)cc(C)c1Oc1nc(NC23CC(C#N)(C2)C3)nc2nc(-c3ccno3)[nH]c12` .
A: 2.45

Q: Jot down log10 of EC50 (monocytic THP1 cells infected with HIV VSV-G pseudotyped GFP-NEF reporter virus) of Cc1cc(/C=C/C#N)cc(C)c1Oc1nc(NC23CC(C#N)(C2)C3)nc2c1C(C)N(CCC(F)(F)F)C2=O (centres unmarked) .
A: 1.85

Q: System monocytic THP1 cells infected with HIV VSV-G pseudotyped GFP-NEF reporter virus. Read-out log10 of EC50. Item `Cc1cc(/C=C/C#N)cc(C)c1Oc1nc(NC23CC(C#N)(C2)C3)nc2nc(C)n(C(F)F)c12` . Report value.
A: 1.07

Q: State, for monocytic THP1 cells infected with HIV VSV-G pseudotyped GFP-NEF reporter virus, measured log10 of EC50 of the compound listed here: Cc1cc(/C=C/C#N)cc(C)c1Oc1nc(NC23CC(C#N)(C2)C3)nc2nc3n(c12)C[C@H](F)CO3 (single isomer, unassigned)
A: 1.43

Q: Write log10 of EC50 of `Cc1cc(/C=C/C#N)cc(C)c1Oc1nc(NC23CC(C#N)(C2)C3)nc2[nH]nc(Cl)c12` ; system used: monocytic THP1 cells infected with HIV VSV-G pseudotyped GFP-NEF reporter virus
A: 1.86

Q: Print monocytic THP1 cells infected with HIV VSV-G pseudotyped GFP-NEF reporter virus log10 of EC50 for Cc1cc(/C=C/C#N)cc(C)c1Oc1nc(NC23CC(C#N)(C2)C3)nc2c1C1(C)O[C@H](C)CCN1C2=O (single isomer, unassigned) .
A: 1.56

Q: Enter log10 of EC50 (test system monocytic THP1 cells infected with HIV VSV-G pseudotyped GFP-NEF reporter virus) for `COc1ccc(Cn2cnc3c(Oc4c(C)cc(/C=C/C#N)cc4C)nc(NC45CC(C#N)(C4)C5)nc32)cc1`
A: 2.71

Q: Supply log10 of EC50 measured with monocytic THP1 cells infected with HIV VSV-G pseudotyped GFP-NEF reporter virus for `CCn1cc2c(Oc3c(C)cc(/C=C/C#N)cc3C)nc(NC34CC(C#N)(C3)C4)nc2n1` .
A: 1.77

Q: Print monocytic THP1 cells infected with HIV VSV-G pseudotyped GFP-NEF reporter virus log10 of EC50 for `Cc1cc(/C=C/C#N)cc(C)c1Oc1nc(NC23CC(C#N)(C2)C3)nc2nn3c(c12)CCCC3` .
A: 1.56

Q: Find the measured log10 of EC50 of `Cc1cc(/C=C/C#N)cc(C)c1Oc1nc(NC23CC(C#N)(C2)C3)nc2nc(Nc3ccccc3)[nH]c12` with monocytic THP1 cells infected with HIV VSV-G pseudotyped GFP-NEF reporter virus as test system.
A: 2.62

Q: // fetch log10 of EC50 for `Cc1cc(/C=C/C#N)cc(C)c1Oc1nc(NC23CC(C#N)(C2)C3)nc2nn(CC(F)F)c(C)c12` ; system: monocytic THP1 cells infected with HIV VSV-G pseudotyped GFP-NEF reporter virus
A: 2.21

Q: System monocytic THP1 cells infected with HIV VSV-G pseudotyped GFP-NEF reporter virus. Read-out log10 of EC50. Item Cc1cc(/C=C/C#N)cc(C)c1Oc1nc(NC23CC(C#N)(C2)C3)nc2c1C1(C)OCC3(CCC3)CN1C2=O (centres unmarked) . Report value.
A: 2.06

Q: // fetch log10 of EC50 for `Cc1cc(/C=C/C#N)cc(C)c1Oc1nc(NC23CC(C#N)(C2)C3)nc2c(=O)n(C)n(C(F)F)c12` ; system: monocytic THP1 cells infected with HIV VSV-G pseudotyped GFP-NEF reporter virus
A: 1.77
